- Tested on: P. aeruginosa Ps296 expressing VIM-2
- Experiment Description: Broth microdilution MIC assay, partner meropenem
- Format: cell-based
- Protocol Conditions: Pseudomonas aeruginosa, read-out: MIC of Exemplary Compounds in presence of fixed β-lactams, Fixed Mero, P. aerug. Ps296 VIM-2

Chemical Structure: NCc1cnc(C(=O)N[C@H]2Cc3cccc(C(=O)O)c3OB2O)cc1CN
MIC: < 4 µg/mL
--
Chemical Structure: NCCNc1ccc(CC(=O)N[C@H]2Cc3cccc(C(=O)O)c3OB2O)cc1
MIC: < 4 µg/mL
--
Chemical Structure: N=C(N)N1Cc2ccc(CC(=O)N[C@H]3Cc4cccc(C(=O)O)c4OB3O)cc2C1
MIC: < 4 µg/mL
--
Chemical Structure: CC(C)NCc1ccc(C(=O)N[C@H]2Cc3cccc(C(=O)O)c3OB2O)cc1CNC(C)C
MIC: < 4 µg/mL
--
Chemical Structure: O=C(Cc1ccc2c(c1)CNCC2)N[C@H]1Cc2cccc(C(=O)O)c2OB1O
MIC: < 4 µg/mL
--
Chemical Structure: Cc1ccc(C(=O)N[C@H]2Cc3cccc(C(=O)O)c3OB2O)cc1NC(=O)[C@@H](N)CN
MIC: > 32 µg/mL
--
Chemical Structure: CN1Cc2ccc(C(=O)N[C@H]3Cc4cccc(C(=O)O)c4OB3O)cc2C1
MIC: 8 to 32 µg/mL
